Source listed as BigSolDB 2.1.

# Conditions: in methanol, 293.15 K
Endpoint: solubility (mole fraction)

| Smiles Notation | Numeric Value |
| --- | --- |
| C[C@]12CCC3=C4CCC(=O)C=C4CC[C@H]3[C@@H]1CC[C@@]2(O)CC#N | 0.00303 |

----------
# Conditions: in water, 318.15 K

| Smiles Notation | solubility (mole fraction) |
| --- | --- |
| C[C@]12CCC3=C4CCC(=O)C=C4CC[C@H]3[C@@H]1CC[C@@]2(O)CC#N | 1.23e-05 |

----------
# Conditions: in water, 288.15 K

| Smiles Notation | solubility (mole fraction) |
| --- | --- |
| C[C@]12CCC3=C4CCC(=O)C=C4CC[C@H]3[C@@H]1CC[C@@]2(O)CC#N | 7.58e-06 |

----------
# Conditions: in THF, 283.15 K

| Smiles Notation | solubility (mole fraction) |
| --- | --- |
| C[C@]12CCC3=C4CCC(=O)C=C4CC[C@H]3[C@@H]1CC[C@@]2(O)CC#N | 0.0125 |

----------
# Conditions: in acetonitrile, 303.15 K

| Smiles Notation | solubility (mole fraction) |
| --- | --- |
| C[C@]12CCC3=C4CCC(=O)C=C4CC[C@H]3[C@@H]1CC[C@@]2(O)CC#N | 0.00313 |

----------
# Conditions: in isopropanol, 278.15 K

| Smiles Notation | solubility (mole fraction) |
| --- | --- |
| C[C@]12CCC3=C4CCC(=O)C=C4CC[C@H]3[C@@H]1CC[C@@]2(O)CC#N | 0.000899 |

----------
# Conditions: in ethanol, 298.15 K

| Smiles Notation | solubility (mole fraction) |
| --- | --- |
| C[C@]12CCC3=C4CCC(=O)C=C4CC[C@H]3[C@@H]1CC[C@@]2(O)CC#N | 0.00287 |

----------
# Conditions: in DMF, 293.15 K
Endpoint: solubility (mole fraction)

| Smiles Notation | Endpoint | Numeric Value |
| --- | --- | --- |
| C[C@]12CCC3=C4CCC(=O)C=C4CC[C@H]3[C@@H]1CC[C@@]2(O)CC#N | solubility (mole fraction) | 0.0318 |

----------
# Conditions: in acetone, 273.15 K
Endpoint: solubility (mole fraction)

| Smiles Notation | Numeric Value |
| --- | --- |
| C[C@]12CCC3=C4CCC(=O)C=C4CC[C@H]3[C@@H]1CC[C@@]2(O)CC#N | 0.00464 |

----------
# Conditions: in ethanol, 303.15 K

| Smiles Notation | solubility (mole fraction) |
| --- | --- |
| C[C@]12CCC3=C4CCC(=O)C=C4CC[C@H]3[C@@H]1CC[C@@]2(O)CC#N | 0.00353 |

----------
# Conditions: in DMF, 308.15 K
Endpoint: solubility (mole fraction)

| Smiles Notation | Endpoint | Numeric Value |
| --- | --- | --- |
| C[C@]12CCC3=C4CCC(=O)C=C4CC[C@H]3[C@@H]1CC[C@@]2(O)CC#N | solubility (mole fraction) | 0.0354 |

----------
# Conditions: in DMF, 278.15 K

| Smiles Notation | solubility (mole fraction) |
| --- | --- |
| C[C@]12CCC3=C4CCC(=O)C=C4CC[C@H]3[C@@H]1CC[C@@]2(O)CC#N | 0.0275 |

----------
# Conditions: in acetone, 293.15 K

| Smiles Notation | solubility (mole fraction) |
| --- | --- |
| C[C@]12CCC3=C4CCC(=O)C=C4CC[C@H]3[C@@H]1CC[C@@]2(O)CC#N | 0.00616 |
